Entry source: BindingDB's records for doi:10.1021/jm00053a001

System: Substance-P receptor (Cavia porcellus)
Sequence (P30547 whole entry): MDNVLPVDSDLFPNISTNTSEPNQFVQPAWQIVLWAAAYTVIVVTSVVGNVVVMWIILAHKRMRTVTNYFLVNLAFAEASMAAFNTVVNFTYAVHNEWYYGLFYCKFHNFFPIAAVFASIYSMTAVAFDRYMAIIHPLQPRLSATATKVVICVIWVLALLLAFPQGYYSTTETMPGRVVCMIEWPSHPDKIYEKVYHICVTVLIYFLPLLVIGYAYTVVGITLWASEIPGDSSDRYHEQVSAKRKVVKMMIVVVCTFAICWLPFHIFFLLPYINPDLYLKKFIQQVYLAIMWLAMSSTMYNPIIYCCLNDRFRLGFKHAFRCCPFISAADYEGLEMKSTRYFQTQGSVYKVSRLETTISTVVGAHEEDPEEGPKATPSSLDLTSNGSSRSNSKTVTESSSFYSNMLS
Where a SMILES comes first, the peptide text is derived from it.
Quantity measured: Kd (nM)
Please state the figure in nM; there is no need to write the unit.

Query :: Fill in reported Kd for this entry: CSCC[C@@H]1NC(=O)[C@H](CC(C)C)NC(=O)CNC(=O)[C@H](Cc2ccccc2)NC(=O)[C@H](Cc2c[nH]c3ccccc23)NC(=O)[C@H](CCC(N)=O)NC1=O (cyclo(FGLMQW))
Result :: 2000

----------
System: Neuromedin-K receptor (Rattus norvegicus, UniProt P16177)
Sequence (P16177 whole entry): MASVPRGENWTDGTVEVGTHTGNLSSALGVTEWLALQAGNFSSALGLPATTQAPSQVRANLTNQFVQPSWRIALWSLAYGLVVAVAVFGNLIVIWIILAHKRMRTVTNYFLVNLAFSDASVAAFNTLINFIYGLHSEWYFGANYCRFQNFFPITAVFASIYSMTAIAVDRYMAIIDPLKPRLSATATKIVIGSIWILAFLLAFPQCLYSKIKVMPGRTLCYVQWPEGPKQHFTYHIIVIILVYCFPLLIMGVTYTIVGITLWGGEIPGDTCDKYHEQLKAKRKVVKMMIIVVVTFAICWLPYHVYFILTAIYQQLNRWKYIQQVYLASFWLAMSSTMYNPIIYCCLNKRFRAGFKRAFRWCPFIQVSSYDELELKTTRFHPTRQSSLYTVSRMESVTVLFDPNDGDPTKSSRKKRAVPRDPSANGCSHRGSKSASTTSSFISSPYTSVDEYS
Where a SMILES comes first, the peptide text is derived from it.
Quantity measured: Kd (µM)
Just the number in µM, nothing appended.

Query :: State, in one line, measured Kd of CSCC[C@@H]1NC(=O)[C@H](CC(C)C)NC(=O)CNC(=O)[C@H](Cc2ccccc2)NC(=O)[C@H](Cc2c[nH]c3ccccc23)NC(=O)[C@H](CCC(N)=O)NC1=O (cyclo(FGLMQW))
Result :: 7.94
